biological target: human C5aR(CD88) (Homo sapiens); construct: expressed in transfected cells; host or cells: rat basophilic leukemia cells (RBL); test: Determination of the IC50 value in an enzyme release assay (functional assay, antagonistic activity); format: cell-based; conditions: antagonistic activity; IC50 group in enzyme release assay, RBL cells expressing human C5aR(CD88); read-out: activity (group)
Positions of bridges follow the written chain, without caps; N, C: chain ends. Non-standard residues stand in square brackets, D forms with d. Residues, ends and D or L forms follow the SMILES beside them. *: point of attachment. Phe(4-F) = N[C@@H](Cc1ccc(F)cc1)C(=O)O; Hydrocinnamoyl = O=C(CCc1ccccc1)*; Hyp = O=C(O)[C@@H]1C[C@@H](O)CN1; d(hLeu) = CC(C)CC[C@@H](N)C(=O)O; dCha = N[C@H](CC1CCCCC1)C(=O)O; Nle = CCCC[C@H](N)C(=O)O; Orn = NCCC[C@H](N)C(=O)O
recorded-metric: IC50

Study these solved cases before continuing.
>  <molecule>
CC(=O)N[C@@H](Cc1ccccc1)C(=O)N[C@@H](CCCN)C(=O)N1C[C@H](O)C[C@H]1C(=O)N[C@H](CCC(C)C)C(=O)N[C@@H](Cc1ccc(F)cc1)C(=O)N[C@@H](Cc1ccccc1)C(N)=O [Compound 245, Ac-Phe-Orn-Hyp-hle-Pff-Phe-NH2] (Ac-F[Orn][Hyp][d(hLeu)][Phe(4-F)]F-NH2)

>  <test-system>
human C5aR(CD88) (Homo sapiens)

>  <test-value>
50 to 200 nM

$$$$
>  <molecule>
CC(=O)N[C@@H](Cc1ccccc1)C(=O)N[C@H]1CCCNC(=O)[C@H](CCCNC(=N)N)NC(=O)[C@H](Cc2c[nH]c3ccccc23)NC(=O)[C@@H](C)NC(=O)[C@@H]2CCCN2C1=O [compound 47]

>  <test-system>
human C5aR(CD88) (Homo sapiens)

>  <test-value>
> 2000 nM

$$$$
>  <molecule>
CCCC[C@@H]1NC(=O)[C@H](Cc2c[nH]c3ccccc23)NC(=O)[C@@H](CC2CCCCC2)NC(=O)[C@@H]2CCCN2C(=O)[C@@H](NC(=O)CCc2ccccc2)CCCNC1=O [Compound 41, Ph-CH2—CH2—CO-[Orn-Pro-cha-Trp-Nle]] (Hydrocinnamoyl-[Orn]P[dCha]W[Nle]; lactam 1-C)

>  <test-system>
human C5aR(CD88) (Homo sapiens)

>  <test-value>
10 to 20 nM

$$$$

Kindly review the next molecule as well.
(Q) Quick one: IC50 for CC(=O)N[C@@H](Cc1ccccc1)C(=O)N[C@H]1CCCNC(=O)[C@H](Cc2ccccc2)NC(=O)[C@H](Cc2ccc(F)cc2)NC(=O)[C@@H](CC2CCCCC2)NC(=O)[C@@H]2CCCN2C1=O [Compound 187, Ac-Phe-[Orn-Pro-cha-Pff-Phe]] (Ac-F[Orn]P[dCha][Phe(4-F)]F; lactam 2-C) ?
(A) 50 to 200 nM

----------
For each of the molecules below, state its IC50.
Target: human C5aR(CD88) (Homo sapiens)
Construct: expressed in transfected cells; host or cells: rat basophilic leukemia cells (RBL)
Sequence (P21730 1-350): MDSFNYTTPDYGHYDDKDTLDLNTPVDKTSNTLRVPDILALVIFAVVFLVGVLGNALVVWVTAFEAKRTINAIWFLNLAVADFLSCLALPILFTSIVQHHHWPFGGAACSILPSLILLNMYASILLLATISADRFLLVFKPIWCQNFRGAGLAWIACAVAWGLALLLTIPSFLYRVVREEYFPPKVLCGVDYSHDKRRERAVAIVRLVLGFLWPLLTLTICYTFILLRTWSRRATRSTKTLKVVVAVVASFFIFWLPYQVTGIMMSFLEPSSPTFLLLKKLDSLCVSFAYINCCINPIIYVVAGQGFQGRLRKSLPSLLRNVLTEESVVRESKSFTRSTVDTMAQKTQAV
Assay: Determination of the IC50 value in an enzyme release assay (functional assay, antagonistic activity)
Assay type: cell-based
Details: antagonistic activity; IC50 group in enzyme release assay, RBL cells expressing human C5aR(CD88); read-out: activity (group)
Non-standard residues stand in square brackets, D forms with d. Residues, ends and D or L forms follow the SMILES beside them. *: point of attachment. Dihydroorotyl(S) = O=C1C[C@@H](C(=O)*)NC(=O)N1; Phe(4-F) = N[C@@H](Cc1ccc(F)cc1)C(=O)O; NMeF = CN[C@@H](Cc1ccccc1)C(=O)O; d(hLeu) = CC(C)CC[C@@H](N)C(=O)O; Cit = NC(=O)NCCC[C@H](N)C(=O)O; dCha = N[C@H](CC1CCCCC1)C(=O)O; Orn = NCCC[C@H](N)C(=O)O

>  <molecule>
CC(C)CC[C@@H](NC(=O)[C@@H]1CCCN1C(=O)[C@H](CCCNC(N)=O)NC(=O)[C@H](Cc1ccccc1)NC(=O)[C@@H]1CC(=O)NC(=O)N1)C(=O)N[C@@H](Cc1ccc(F)cc1)C(=O)N[C@@H](Cc1ccccc1)C(N)=O [Compound 348, Hoo-Phe-Cit-Pro-hle-Pff-Phe-NH2] ({Dihydroorotyl(S)}-F[Cit]P[d(hLeu)][Phe(4-F)]F-NH2)

>  <recorded-metric>
IC50

>  <test-value>
50 to 200 nM

$$$$

(Q) Quick one: IC50 for CN[C@@H](Cc1ccccc1)C(=O)N[C@@H](CCCN)C(=O)N1CCC[C@H]1C(=O)N[C@H](CC1CCCCC1)C(=O)N[C@@H](Cc1c[nH]c2ccccc12)C(=O)N[C@@H](Cc1ccccc1)C(N)=O [Compound 75, H—Me-Phe-Orn-Pro-cha-Trp-Phe-NH2] (H-[NMeF][Orn]P[dCha]WF-NH2) ?
(A) 50 to 200 nM

Where do the numbers come from? From patent US20080161232A1.
